Molecular target: human Nav1.5 channels stably expressed in HEK 293 cells (Homo sapiens, UniProt Q14524)
Construct: expressed in transfected cells
Sequence (Q14524 whole entry): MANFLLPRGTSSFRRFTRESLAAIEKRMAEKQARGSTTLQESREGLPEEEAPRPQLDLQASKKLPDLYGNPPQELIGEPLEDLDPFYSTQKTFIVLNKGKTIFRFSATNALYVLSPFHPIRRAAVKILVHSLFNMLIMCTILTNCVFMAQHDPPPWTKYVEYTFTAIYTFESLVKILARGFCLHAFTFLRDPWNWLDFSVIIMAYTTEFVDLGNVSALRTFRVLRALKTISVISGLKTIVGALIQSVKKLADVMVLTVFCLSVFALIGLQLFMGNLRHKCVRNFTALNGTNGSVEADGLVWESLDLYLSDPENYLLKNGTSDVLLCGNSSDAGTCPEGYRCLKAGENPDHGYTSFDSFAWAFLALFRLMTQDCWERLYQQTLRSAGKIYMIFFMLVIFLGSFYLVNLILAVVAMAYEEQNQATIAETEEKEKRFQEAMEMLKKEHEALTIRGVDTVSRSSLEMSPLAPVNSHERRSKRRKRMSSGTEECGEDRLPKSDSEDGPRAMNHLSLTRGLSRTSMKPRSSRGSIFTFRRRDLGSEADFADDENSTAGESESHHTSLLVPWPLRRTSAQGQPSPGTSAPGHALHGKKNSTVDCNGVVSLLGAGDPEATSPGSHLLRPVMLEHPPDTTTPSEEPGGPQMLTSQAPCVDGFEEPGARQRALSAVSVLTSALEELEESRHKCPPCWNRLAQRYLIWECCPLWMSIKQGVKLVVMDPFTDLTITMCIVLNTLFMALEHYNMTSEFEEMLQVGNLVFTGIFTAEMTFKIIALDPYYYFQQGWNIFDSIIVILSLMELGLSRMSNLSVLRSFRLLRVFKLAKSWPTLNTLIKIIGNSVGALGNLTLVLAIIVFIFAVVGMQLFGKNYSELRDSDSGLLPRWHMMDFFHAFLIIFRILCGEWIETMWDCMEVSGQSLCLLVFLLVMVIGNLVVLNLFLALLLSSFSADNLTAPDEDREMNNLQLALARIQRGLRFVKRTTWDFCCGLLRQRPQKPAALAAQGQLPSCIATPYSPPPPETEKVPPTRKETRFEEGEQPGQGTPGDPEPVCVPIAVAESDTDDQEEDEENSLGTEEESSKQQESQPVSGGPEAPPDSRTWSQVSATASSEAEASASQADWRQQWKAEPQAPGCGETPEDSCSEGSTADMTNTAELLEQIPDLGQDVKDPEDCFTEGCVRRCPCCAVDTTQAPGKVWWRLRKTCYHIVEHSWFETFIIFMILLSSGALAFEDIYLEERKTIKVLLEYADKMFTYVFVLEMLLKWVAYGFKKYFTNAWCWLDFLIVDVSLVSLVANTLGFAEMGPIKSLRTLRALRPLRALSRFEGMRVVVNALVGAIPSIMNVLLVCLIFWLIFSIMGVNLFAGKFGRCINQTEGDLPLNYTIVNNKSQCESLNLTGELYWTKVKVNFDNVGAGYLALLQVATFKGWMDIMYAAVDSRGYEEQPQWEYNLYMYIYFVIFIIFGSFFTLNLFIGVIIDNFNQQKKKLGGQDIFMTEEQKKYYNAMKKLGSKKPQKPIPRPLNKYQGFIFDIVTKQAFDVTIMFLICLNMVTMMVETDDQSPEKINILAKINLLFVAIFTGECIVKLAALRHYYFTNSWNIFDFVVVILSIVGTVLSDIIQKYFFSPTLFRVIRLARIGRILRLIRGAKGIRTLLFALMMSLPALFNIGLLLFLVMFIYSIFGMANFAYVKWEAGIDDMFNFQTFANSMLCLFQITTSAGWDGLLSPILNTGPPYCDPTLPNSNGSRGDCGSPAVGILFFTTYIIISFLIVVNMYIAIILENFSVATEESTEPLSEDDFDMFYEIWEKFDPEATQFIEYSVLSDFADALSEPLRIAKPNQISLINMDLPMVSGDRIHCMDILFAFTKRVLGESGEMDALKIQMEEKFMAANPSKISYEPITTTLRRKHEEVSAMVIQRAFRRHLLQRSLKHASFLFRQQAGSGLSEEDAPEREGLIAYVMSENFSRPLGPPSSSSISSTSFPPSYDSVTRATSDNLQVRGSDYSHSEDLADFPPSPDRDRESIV
Assay: PatchXpress 7000 automated patch-clamp, sodium current
Format: cell-based
Details: selectivity over Nav1.5
Method: To measure state and use-dependent sodium channel inhibition, test compounds were further characterized in an automated PatchXpress® assay (Molecular Devices). Two voltage-clamp protocols were used. […] For all electrophysiology experiments, offline analysis was used to correct for current rundown and to determine percent inhibition as a function of drug concentration. IC50 values were determined by fitting to the Hill equation.
Note: every record was labeled by where its ratio of Nav 1.5:Nav 1.7 potency, determined by PatchXpress measurement sits among bottom range: < 70; center range: ≥ 70 and < 200; top range: ≥ 200

Hi, small favor: classify COC(=O)[C@H](c1ccccc1)n1c(=O)oc2cc(S(=O)(=O)Nc3nccs3)ccc21 by its ratio of Nav 1.5:Nav 1.7 potency, determined by PatchXpress measurement when you get a moment. bottom range

Then this compound: CC(c1cccc2c1CNCC2)n1c(=O)oc2cc(S(=O)(=O)Nc3ncns3)ccc21 (stereo not drawn) top range

Then this compound: Cc1cc2c(cc1S(=O)(=O)Nc1ncns1)oc(=O)n2[C@H](C)c1ccccc1 bottom range

Then this compound: CC1(C)CCC(n2c(=O)oc3cc(S(=O)(=O)Nc4ncns4)c(F)cc32)c2ccccc21 (stereo not drawn) bottom range

Then this compound: C[C@H](c1cccc2ccncc12)n1c(=O)oc2cc(S(=O)(=O)Nc3ncns3)c(F)cc21 center range

Then this compound: C[C@H](c1ccccc1CN1CCCC1)n1c(=O)oc2cc(S(=O)(=O)Nc3ncns3)c(F)cc21 top range

Then this compound: C[C@H](c1ccccc1C#CCN)n1c(=O)oc2cc(S(=O)(=O)Nc3ncns3)c(Cl)cc21 bottom range

Then this compound: Nc1cc2cccc(Cn3c(=O)oc4cc(S(=O)(=O)Nc5ncns5)c(F)cc43)c2cn1 top range

Then this compound: O=C(c1ccccc1)N1CCC2(CC1)CC(n1c(=O)oc3cc(S(=O)(=O)Nc4ncns4)c(F)cc31)c1cc(F)ccc1O2 (stereo not drawn) bottom range

Then this compound: C[C@H](O)C#Cc1ccccc1[C@@H](C)n1c(=O)oc2cc(S(=O)(=O)Nc3ncns3)c(F)cc21 top range

Then this compound: NC/C=C/c1ccccc1Cn1c(=O)oc2cc(S(=O)(=O)Nc3ncns3)c(F)cc21 top range

Then this compound: O=c1oc2cc(S(=O)(=O)Nc3nccs3)c(F)cc2n1Cc1cccc2c1CNCC2F (single isomer, unassigned) [Compound 43-27] top range

Then this compound: C[C@H](c1ccccc1C#CCC1CCCN1)n1c(=O)oc2cc(S(=O)(=O)Nc3ncns3)c(F)cc21 (stereo partly drawn) top range

Then this compound: O=c1oc2cc(S(=O)(=O)Nc3ncns3)c(F)cc2n1Cc1cccc2c1CNCC2 center range

Then this compound: O=c1oc2cc(S(=O)(=O)Nc3ncns3)c(F)cc2n1CC1CC1c1ccccc1 (stereo not drawn) center range

Then this compound: O=c1oc2cc(S(=O)(=O)Nc3ncns3)c(F)cc2n1[C@@H]1C[C@@H](c2ccccc2)Oc2ccccc21 bottom range

Then this compound: C[C@H](c1cccc2cncn12)n1c(=O)oc2cc(S(=O)(=O)Nc3ncns3)c(F)cc21 center range

Then this compound: CC(c1cccc2c1CNCC2)n1c(=O)oc2cc(S(=O)(=O)Nc3ncns3)c(Cl)cc21 (racemic) center range

Then this compound: C[C@H](c1ccccc1C1=CCCNC1)n1c(=O)oc2cc(S(=O)(=O)Nc3ncns3)c(F)cc21 top range

Then this compound: O=c1oc2cc(S(=O)(=O)Nc3ncns3)ccc2n1Cc1ccccc1Cl bottom range

Then this compound: C[C@H](c1ccccc1C1CNC1)n1c(=O)oc2cc(S(=O)(=O)Nc3ncns3)c(F)cc21 top range

Then this compound: C[C@H](c1ccccc1C#CC1(O)CCCC1)n1c(=O)oc2cc(S(=O)(=O)Nc3ncns3)c(F)cc21 center range

Then this compound: Cn1cc2cccc(Cn3c(=O)oc4cc(S(=O)(=O)Nc5ncns5)c(F)cc43)c2n1 center range

Then this compound: C[C@H](c1ccccc1C#CCN1CCS(=O)(=O)CC1)n1c(=O)oc2cc(S(=O)(=O)Nc3ncns3)c(F)cc21 top range

Then this compound: C[C@H](c1ccccc1)n1c(=O)oc2cc(S(=O)(=O)Nc3ncns3)ccc21 top range

---

target: human Nav1.7 channels stably expressed in HEK 293 cells (Homo sapiens); construct: expressed in transfected cells; test: IonWorks Quattro automated patch-clamp, sodium current, inactivated state block; assay type: cell-based; details: read-out: potency for the Nav 1.7 sodium ion channel (as measured by IonWorks)
observable: IC50

What value of IC50 has been recorded for this entry: O=C(C1CC1)N1CCc2cccc(Cn3c(=O)oc4cc(S(=O)(=O)Nc5ncns5)ccc43)c2C1 666 nM

Then this compound: C[C@@H](c1ccccc1)n1c(=O)oc2cc(S(=O)(=O)Nc3ncns3)c(F)cc21 157 nM

Then this compound: O=c1oc2cc(S(=O)(=O)Nc3ncns3)ccc2n1Cc1ccccc1C1=CCNCCC1 248 nM

Then this compound: CCCN1CCc2cccc(Cn3c(=O)oc4cc(S(=O)(=O)Nc5ncns5)ccc43)c2C1 642 nM

Then this compound: C[C@@H](c1ccccc1)n1c(=O)oc2cc(S(=O)(=O)Nc3ncns3)ccc21 1480 nM

Then this compound: C[C@H](c1cccc2c1CNCC2)n1c(=O)oc2cc(S(=O)(=O)Nc3ncns3)ccc21 5 nM

---

target: human Nav1.7 channels stably expressed in HEK 293 cells (Homo sapiens, UniProt Q15858); construct: expressed in transfected cells; test: IonWorks Quattro automated patch-clamp, sodium current, inactivated state block; format: cell-based; settings: read-out: potency for the Nav 1.7 sodium ion channel (as measured by IonWorks)
Sequence (Q15858 whole entry): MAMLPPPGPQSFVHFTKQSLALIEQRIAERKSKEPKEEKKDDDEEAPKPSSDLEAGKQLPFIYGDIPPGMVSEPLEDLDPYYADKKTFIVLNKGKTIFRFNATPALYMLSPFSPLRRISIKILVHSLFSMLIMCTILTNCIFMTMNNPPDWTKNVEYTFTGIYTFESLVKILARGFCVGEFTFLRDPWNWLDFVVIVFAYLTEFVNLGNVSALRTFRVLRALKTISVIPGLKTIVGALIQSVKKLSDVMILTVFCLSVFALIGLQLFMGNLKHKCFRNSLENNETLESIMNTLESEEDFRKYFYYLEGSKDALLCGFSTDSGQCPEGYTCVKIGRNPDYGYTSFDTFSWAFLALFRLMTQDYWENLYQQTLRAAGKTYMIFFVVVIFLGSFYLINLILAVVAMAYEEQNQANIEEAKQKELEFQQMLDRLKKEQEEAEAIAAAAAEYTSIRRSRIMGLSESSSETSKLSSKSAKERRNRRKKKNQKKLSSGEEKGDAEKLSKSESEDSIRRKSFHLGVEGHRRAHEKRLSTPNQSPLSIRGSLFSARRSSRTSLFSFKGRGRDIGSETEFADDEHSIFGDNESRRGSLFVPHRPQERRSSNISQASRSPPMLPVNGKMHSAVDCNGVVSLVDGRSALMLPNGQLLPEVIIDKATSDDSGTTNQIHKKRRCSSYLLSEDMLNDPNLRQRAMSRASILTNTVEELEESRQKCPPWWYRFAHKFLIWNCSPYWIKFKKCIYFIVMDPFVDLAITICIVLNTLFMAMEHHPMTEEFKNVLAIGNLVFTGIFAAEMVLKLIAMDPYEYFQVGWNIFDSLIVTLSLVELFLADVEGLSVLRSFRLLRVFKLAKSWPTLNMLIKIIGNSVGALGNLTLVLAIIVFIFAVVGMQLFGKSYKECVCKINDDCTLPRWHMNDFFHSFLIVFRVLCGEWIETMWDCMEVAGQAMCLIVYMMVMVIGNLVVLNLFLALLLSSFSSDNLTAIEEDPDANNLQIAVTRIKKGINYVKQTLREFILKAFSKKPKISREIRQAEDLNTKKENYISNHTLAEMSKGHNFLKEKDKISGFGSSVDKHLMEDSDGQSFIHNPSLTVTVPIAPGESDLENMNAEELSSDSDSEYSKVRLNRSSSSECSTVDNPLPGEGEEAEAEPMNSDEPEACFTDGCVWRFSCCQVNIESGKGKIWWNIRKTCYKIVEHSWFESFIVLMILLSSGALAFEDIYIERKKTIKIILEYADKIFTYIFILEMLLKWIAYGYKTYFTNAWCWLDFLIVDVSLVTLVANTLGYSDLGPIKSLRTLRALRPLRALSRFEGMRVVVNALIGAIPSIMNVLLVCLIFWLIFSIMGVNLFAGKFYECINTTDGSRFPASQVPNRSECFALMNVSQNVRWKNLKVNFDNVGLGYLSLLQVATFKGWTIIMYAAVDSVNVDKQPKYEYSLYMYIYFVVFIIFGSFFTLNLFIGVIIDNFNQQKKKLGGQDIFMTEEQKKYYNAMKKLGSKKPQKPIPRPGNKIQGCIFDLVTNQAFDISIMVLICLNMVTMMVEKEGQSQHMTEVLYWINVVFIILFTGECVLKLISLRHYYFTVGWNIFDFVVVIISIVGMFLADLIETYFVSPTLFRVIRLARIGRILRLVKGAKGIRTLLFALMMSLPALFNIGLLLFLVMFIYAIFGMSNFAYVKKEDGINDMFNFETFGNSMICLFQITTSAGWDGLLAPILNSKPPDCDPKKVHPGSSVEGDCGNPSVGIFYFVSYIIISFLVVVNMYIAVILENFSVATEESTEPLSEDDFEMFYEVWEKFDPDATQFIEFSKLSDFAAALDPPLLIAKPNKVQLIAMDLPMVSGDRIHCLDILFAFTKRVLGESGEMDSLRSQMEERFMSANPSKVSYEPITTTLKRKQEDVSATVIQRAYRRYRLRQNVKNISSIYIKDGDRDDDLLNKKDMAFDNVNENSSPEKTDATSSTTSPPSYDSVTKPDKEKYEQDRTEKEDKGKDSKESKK
observable: IC50 (nM)
Provide the reading as a plain figure in nM.

What value of IC50 has been recorded for this entry: O=c1oc2cc(S(=O)(=O)Nc3ncns3)ccc2n1Cc1ccccc1-c1ccccc1N1CCNCC1 563

Then this molecule: NCc1ccc(Cl)cc1Cn1c(=O)oc2cc(S(=O)(=O)Nc3ncns3)ccc21 605

Then this molecule: O=c1oc2cc(S(=O)(=O)Nc3ncns3)ccc2n1Cc1cccc2ccncc12 216

Then this molecule: C[C@@H](c1cccc2c1CNCC2)n1c(=O)oc2cc(S(=O)(=O)Nc3ncns3)ccc21 73

Then this molecule: O=c1oc2cc(S(=O)(=O)Nc3ncns3)c(F)cc2n1C(c1ccccc1)C1CC1 (centres unmarked) 110

Then this molecule: O=c1oc2cc(S(=O)(=O)Nc3ncns3)ccc2n1Cc1cccc(Cl)c1 360

Then this molecule: C[C@H](c1ccccc1)n1c(=O)oc2cc(S(=O)(=O)Nc3ncns3)c(F)cc21 21

Then this molecule: O=c1oc2cc(S(=O)(=O)Nc3ncns3)ccc2n1Cc1cccc(-c2cccc3c2CNCC3)c1 395

---

So I've got a bunch of molecules here, and I need their pIC50 values.
target: human Nav1.7 channels stably expressed in HEK 293 cells (Homo sapiens, UniProt Q15858); construct: expressed in transfected cells; test: IonWorks Quattro automated patch-clamp, sodium current, inactivated state block; format: cell-based; conditions: read-out: potency for the Nav 1.7 sodium ion channel (as measured by IonWorks)
Entry type: numeric. Quantity: pIC50, the -log10 of concentration in molar units.

What value of pIC50 has been recorded for this entry: CCN1CCc2cccc(Cn3c(=O)oc4cc(S(=O)(=O)Nc5ncns5)ccc43)c2C1 6.47

Then this molecule: C[C@H](c1ccccc1)n1c(=O)oc2cc(S(=O)(=O)Nc3ncns3)ccc21 6.17

Then this molecule: O=c1oc2cc(S(=O)(=O)Nc3ncns3)ccc2n1Cc1ccccc1-c1cccc2c1CNCC2 6.80

Then this molecule: O=c1oc2cc(S(=O)(=O)Nc3ncns3)ccc2n1Cc1ccccc1C1=CCCNC1 6.54

Then this molecule: O=c1oc2cc(S(=O)(=O)Nc3ncns3)ccc2n1Cc1cccc(C2=CCCNC2)c1 6.19

Then this molecule: NC/C=C/c1cc(Cl)ccc1Cn1c(=O)oc2cc(S(=O)(=O)Nc3ncns3)ccc21 6.22

Then this molecule: O=c1oc2cc(S(=O)(=O)Nc3ncns3)ccc2n1Cc1ccccc1-c1ccnc(CN2CCCCC2)c1 5.76

Then this molecule: CS(=O)(=O)N1CCc2cccc(Cn3c(=O)oc4cc(S(=O)(=O)Nc5ncns5)ccc43)c2C1 6.28

---

biological target: human Nav1.5 channels stably expressed in HEK 293 cells (Homo sapiens); construct: expressed in transfected cells; test: PatchXpress 7000 automated patch-clamp, sodium current; format: cell-based; conditions: selectivity over Nav1.5
Class Condition met: ratio of Nav 1.5:Nav 1.7 potency, determined by PatchXpress measurement at least 60. Class Condition not met: ratio of Nav 1.5:Nav 1.7 potency, determined by PatchXpress measurement below 60.

Assess whether reported ratio of Nav 1.5:Nav 1.7 potency, determined by PatchXpress measurement for O=c1oc2cc(S(=O)(=O)Nc3ncns3)c(F)cc2n1Cc1cccc2c1CC(O)CC2 (centres unmarked) [Compound 21-1] sits at 60 or higher. Condition met

Then this compound: O=c1oc2cc(S(=O)(=O)Nc3ncns3)c(F)cc2n1C1CC2(COC2)Oc2ccccc21 (centres unmarked) [Compound 39-4] Condition not met

Then this compound: C[C@H](c1ccccc1I)n1c(=O)oc2cc(S(=O)(=O)Nc3ncns3)c(F)cc21 [Compound 16-3] Condition met

Then this compound: O=c1oc2cc(S(=O)(=O)Nc3ncns3)c(F)cc2n1[C@H]1CC2(CCC2)Oc2ccccc21 [Compound 39-16] Condition met

Then this compound: CS(=O)(=O)N1CCc2cccc(Cn3c(=O)oc4cc(S(=O)(=O)Nc5ncns5)ccc43)c2C1 [Compound 8-4] Condition met

Then this compound: CCc1cc2c(cc1S(=O)(=O)Nc1ncns1)oc(=O)n2[C@H](C)c1ccccc1 [Compound 38-2] Condition not met

Then this compound: O=c1oc2cc(S(=O)(=O)Nc3ncns3)c(F)cc2n1Cc1cccc2c1C1CC1C=C2 (centres unmarked) [Compound 11-13] Condition not met
